Overview of reported normalised response across a group of compounds:
test system: Hs578T; experiment: normalised response (% of control), CellTiter-Glo; higher = more viable cells (100 = DMSO, 0 = benzethonium chloride kill control); conditions: incubation time: 72 h
recorded_endpoint: normalised response

{"compound": "COc1nc(N)nc2c1ncn2[C@@H]1O[C@H](CO)[C@@H](O)[C@@H]1O [Nelarabine] (100 nM)", "measurement": "87.1%"}
{"compound": "O=C1c2c(O)ccc(O)c2C(=O)c2c(NCCNCCO)ccc(NCCNCCO)c21 [Mitoxantrone] (10 nM)", "measurement": "102%"}
{"compound": "CC(=O)OC[C@H]1O[C@@H]([S-])[C@H](OC(C)=O)[C@@H](OC(C)=O)[C@@H]1OC(C)=O.CCP(CC)CC.[Au+] [Auranofin] (25 nM)", "measurement": "103%"}
{"compound": "Cn1cc(CNCC2CCN(c3ncc(C(=O)NO)cn3)CC2)c2ccccc21 [Quisinostat] (10 nM)", "measurement": "85.7%"}

* * *

test system: MDA-MB-453; test: normalised viability (% of control), CellTiter-Blue; higher = more viable cells (about 100 = DMSO control); details: 3 nM; incubation time: 72 h
Catalogue of normalised viability readings, one per entry.

{"smiles_structure": "O=S(=O)(c1cccc2cnccc12)N1CCCNCC1", "unit_of_measurement": "%", "normalised viability": 112}
{"smiles_structure": "COc1ccc(-c2cc3c(C)nc(N)nc3n([C@H]3CC[C@H](OCCO)CC3)c2=O)cn1", "unit_of_measurement": "%", "normalised viability": 103}
{"smiles_structure": "CC[C@@]1(O)C(=O)OCc2c1cc1n(c2=O)Cc2cc3c(CN(C)C)c(O)ccc3nc2-1", "unit_of_measurement": "%", "normalised viability": 107}
{"smiles_structure": "O=C(Nc1c[nH]nc1-c1nc2ccc(CN3CCOCC3)cc2[nH]1)NC1CC1", "unit_of_measurement": "%", "normalised viability": 99.2}
{"smiles_structure": "CS(=O)(=O)N1CCN(Cc2cc3nc(-c4cccc5[nH]ncc45)nc(N4CCOCC4)c3s2)CC1", "unit_of_measurement": "%", "normalised viability": 109}

* * *

# maps each entry to its normalised response
tested on: HDQ-P1; test: normalised response (% of control), CellTiter-Glo; higher = more viable cells (100 = DMSO, 0 = benzethonium chloride kill control); details: incubation time: 72 h

{"compound": "COc1cc(CCc2cc(NC(=O)c3ccc(N4CC(C)NC(C)C4)cc3)n[nH]2)cc(OC)c1 (centres undefined) [AZD4547] (1000 nM)", "target": "HDQ-P1", "normalised response": "93.7%"}
{"compound": "CC[C@@]1(O)C(=O)OCc2c1cc1n(c2=O)Cc2cc3c(CN(C)C)c(O)ccc3nc2-1 [Topotecan] (10000 nM)", "target": "HDQ-P1", "normalised response": "54.5%"}
{"compound": "Cc1c(CN2CCN(C(=O)[C@H](C)O)CC2)sc2c(N3CCOCC3)nc(-c3cnc(N)nc3)nc12 [GDC-0980] (10000 nM)", "target": "HDQ-P1", "normalised response": "10.6%"}
{"compound": "O=C(CCBr)N1CCN(C(=O)CCBr)CC1 [Pipobroman] (10000 nM)", "target": "HDQ-P1", "normalised response": "107%"}

* * *

test system: DU-4475; assay: normalised response (% of control), CellTiter-Glo; higher = more viable cells (100 = DMSO, 0 = benzethonium chloride kill control); conditions: incubation time: 72 h
recorded_endpoint: normalised response (%)

{"compound": "COc1nc(N)nc2c1ncn2[C@@H]1O[C@H](CO)[C@@H](O)[C@@H]1O [Nelarabine] (1 nM)", "unit_of_measurement": "%", "measurement": 89.5}
{"compound": "CC[C@@]1(O)C(=O)OCc2c1cc1n(c2=O)Cc2cc3c(CN(C)C)c(O)ccc3nc2-1 [Topotecan] (10 nM)", "unit_of_measurement": "%", "measurement": 95.4}
{"compound": "Cc1nc(Nc2ncc(C(=O)Nc3c(C)cccc3Cl)s2)cc(N2CCN(CCO)CC2)n1 [Dasatinib] (100 nM)", "unit_of_measurement": "%", "measurement": 100}
{"compound": "Cn1cc(CNCC2CCN(c3ncc(C(=O)NO)cn3)CC2)c2ccccc21 [Quisinostat] (1 nM)", "unit_of_measurement": "%", "measurement": 102}
{"compound": "CNC(=O)c1cc(Oc2ccc(NC(=O)Nc3ccc(Cl)c(C(F)(F)F)c3)cc2)ccn1 [Sorafenib] (100 nM)", "unit_of_measurement": "%", "measurement": 105}
{"compound": "CCCCC/C=C/C=C1/C(=O)C=C[C@@H]1C/C=C\\CCCC(=O)O [15D-PGJ2] (80 nM)", "unit_of_measurement": "%", "measurement": 102}
{"compound": "CC/C(=C(\\c1ccc(O)cc1)c1ccc(OCCN(C)C)cc1)c1ccccc1 [4-hydroxytamoxifen] (1000 nM)", "unit_of_measurement": "%", "measurement": 98.5}
{"compound": "Cc1c(CN2CCN(C(=O)[C@H](C)O)CC2)sc2c(N3CCOCC3)nc(-c3cnc(N)nc3)nc12 [GDC-0980] (1 nM)", "unit_of_measurement": "%", "measurement": 104}

* * *

test system: MFM-223; assay: normalised response (% of control), CellTox Green; higher = less cell death (100 = DMSO, 0 = benzethonium chloride kill control); conditions: incubation time: 72 h
recorded_endpoint: normalised response (%)

{"compound": "CC/C(=C(\\c1ccc(O)cc1)c1ccc(OCCN(C)C)cc1)c1ccccc1 [4-hydroxytamoxifen] (10000 nM)", "unit_of_measurement": "%", "measurement": 91.1}
{"compound": "CC/C(=C(\\c1ccc(O)cc1)c1ccc(OCCN(C)C)cc1)c1ccccc1 [4-hydroxytamoxifen] (100 nM)", "unit_of_measurement": "%", "measurement": 106}
{"compound": "O=S(=O)(c1cccc2cnccc12)N1CCCNCC1 [Fasudil] (50000 nM)", "unit_of_measurement": "%", "measurement": 102}
{"compound": "COc1nc(N)nc2c1ncn2[C@@H]1O[C@H](CO)[C@@H](O)[C@@H]1O [Nelarabine] (1000 nM)", "unit_of_measurement": "%", "measurement": 89.8}
{"compound": "Cn1cc(CNCC2CCN(c3ncc(C(=O)NO)cn3)CC2)c2ccccc21 [Quisinostat] (10 nM)", "unit_of_measurement": "%", "measurement": 103}
{"compound": "Cc1cccc(-c2nn3c(c2-c2ccnc4ccc(C(N)=O)cc24)CCC3)n1 [Galunisertib] (1000 nM)", "unit_of_measurement": "%", "measurement": 102}
{"compound": "Cc1ccc(Nc2nccc(N(C)c3ccc4c(C)n(C)nc4c3)n2)cc1S(N)(=O)=O [Pazopanib] (100 nM)", "unit_of_measurement": "%", "measurement": 104}
{"compound": "Cc1cccc(-c2nn3c(c2-c2ccnc4ccc(C(N)=O)cc24)CCC3)n1 [Galunisertib] (100 nM)", "unit_of_measurement": "%", "measurement": 98.5}
{"compound": "CCN(CC)CCNC(=O)c1c(C)[nH]c(/C=C2\\C(=O)Nc3ccc(F)cc32)c1C [Sunitinib] (1000 nM)", "unit_of_measurement": "%", "measurement": 99.2}
{"compound": "CS(=O)(=O)N1CCN(Cc2cc3nc(-c4cccc5[nH]ncc45)nc(N4CCOCC4)c3s2)CC1 [Pictilisib] (100 nM)", "unit_of_measurement": "%", "measurement": 105}
{"compound": "CS(=O)(=O)N1CCN(Cc2cc3nc(-c4cccc5[nH]ncc45)nc(N4CCOCC4)c3s2)CC1 [Pictilisib] (1000 nM)", "unit_of_measurement": "%", "measurement": 76.8}
{"compound": "CO[C@@H](C(=O)N1Cc2[nH]nc(NC(=O)c3ccc(N4CCN(C)CC4)cc3)c2C1)c1ccccc1 [Danusertib] (1000 nM)", "unit_of_measurement": "%", "measurement": 92.9}
{"compound": "O=C(NC[C@H](O)CO)c1ccncc1Nc1ccc(I)cc1F [Pimasertib] (100 nM)", "unit_of_measurement": "%", "measurement": 107}
{"compound": "O=S(=O)(c1cccc2cnccc12)N1CCCNCC1 [Fasudil] (500 nM)", "unit_of_measurement": "%", "measurement": 91.7}
{"compound": "COc1ccc(-c2cc3c(C)nc(N)nc3n([C@H]3CC[C@H](OCCO)CC3)c2=O)cn1 (10000 nM)", "unit_of_measurement": "%", "measurement": 52.8}
{"compound": "O=C(Nc1c[nH]nc1-c1nc2ccc(CN3CCOCC3)cc2[nH]1)NC1CC1 [AT9283] (100 nM)", "unit_of_measurement": "%", "measurement": 103}

* * *

test system: HCC1143; assay: normalised viability (% of control), CellTiter-Blue; higher = more viable cells (about 100 = DMSO control); settings: 1000 nM; incubation time: 72 h
Here the recorded normalised viability is given for each entry.

{"smiles_structure": "CS(=O)(=O)N1CCN(Cc2cc3nc(-c4cccc5[nH]ncc45)nc(N4CCOCC4)c3s2)CC1", "target": "HCC1143", "normalised viability [%]": 52.1}
{"smiles_structure": "Cc1cccc(-c2nn3c(c2-c2ccnc4ccc(C(N)=O)cc24)CCC3)n1", "target": "HCC1143", "normalised viability [%]": 91.1}
{"smiles_structure": "O=C(NC[C@H](O)CO)c1ccncc1Nc1ccc(I)cc1F", "target": "HCC1143", "normalised viability [%]": 55.4}
{"smiles_structure": "Cc1c(CN2CCN(C(=O)[C@H](C)O)CC2)sc2c(N3CCOCC3)nc(-c3cnc(N)nc3)nc12", "target": "HCC1143", "normalised viability [%]": 33.8}
{"smiles_structure": "O=C(Nc1c[nH]nc1-c1nc2ccc(CN3CCOCC3)cc2[nH]1)NC1CC1", "target": "HCC1143", "normalised viability [%]": 51.8}
{"smiles_structure": "O=C1c2c(O)ccc(O)c2C(=O)c2c(NCCNCCO)ccc(NCCNCCO)c21", "target": "HCC1143", "normalised viability [%]": 31.2}
{"smiles_structure": "Cn1cc(CNCC2CCN(c3ncc(C(=O)NO)cn3)CC2)c2ccccc21", "target": "HCC1143", "normalised viability [%]": 11.1}
